- Tested on: MCF7 breast
- protocol-details: NCI-60 one-dose screen, 48 h (100 = growth as untreated, 0 = no growth, -100 = all killed)
- condition-details: 10 µM unless noted
Compounds without any hit were thinned out: in the full panel of roughly 83,000, 20% have a hit.
measured-endpoint: growth (%)
Numbers only, in %.

# annotated cases, reported growth shown
- compound: "Cc1nc2ccccc2c(/C=C/c2ccc(Cl)cc2)c1C(=O)/C=C/c1ccc(C(F)(F)F)cc1"
  experimental-target: "MCF7 breast"
  unit-info: "%"
  growth: -29.6
- compound: "Cc1nc2ccccc2n1-c1ncnc2c1CC(C)c1ccccc1N2C (configuration not stated)"
  experimental-target: "MCF7 breast"
  unit-info: "%"
  growth: 61.8
- compound: "COc1cc2cc(Oc3ccc(NC(=O)Nc4cc(C(F)(F)F)cc(C(F)(F)F)c4)cc3)c(C)nc2cc1OCCN1CCOCC1"
  experimental-target: "MCF7 breast"
  unit-info: "%"
  growth: 7.15
- compound: "O=c1ccc(N=Nc2ccc([N+](=O)[O-])cc2)ccc1O"
  experimental-target: "MCF7 breast"
  unit-info: "%"
  growth: 7.16
- compound: "COc1ccc(C(Cc2ccccc2)NCCN2CCOCC2)cc1 (configuration not stated)"
  experimental-target: "MCF7 breast"
  unit-info: "%"
  growth: 89.2

Quick batch: growth for everything below.
1. COC(=O)/C=C1\S/C(=N\Nc2ccc([N+](=O)[O-])cc2[N+](=O)[O-])N(C2CCCCC2)C1=O
2. CCCCCCCNC(=O)CCCNc1ncnc2c1ncn2-c1cccc(C(C)O)c1 (configuration not stated)

23.1
86.6
